- target_of_assay: T1, Fc-tagged human TSLP antigen (huTSLP-Fc) (human, biotin-labeled in the blocking assays)
- T1 construct: whole entry named; also called recombinant human TSLP-Fc
- test_description: competition ELISA: blocks TSLP binding to TSLP receptor
observation_type: IC50 (nM)
Lab book: enter the figure in nM, no units written.

Examples from the recorded data:
Ask | Any idea what its IC50 is? The binder is hu199-19 (antibody, human IgG1, kappa, V domains shown, IgG1-YTE, kappa) VH: EVQLVQSGAEVKKPGASVKVSCKASGYTFTTYWMHWVKQAPGQGLEWIGMIDPSDSETTLIQKFKDKATLTVDKSTSTAYMELSSLRSEDTAVYYCARTLDGYYDYWGQGTTVTVSS VL: DIQMTQSPSSLSASVGDRVTITCRASENIYSYLAWYQQKPGKAPKLLIYFAKTLAEGVPSRFSGSGSGTDFTLTISSLQPEDFATYYCQHHYGTPWTFGGGTKVEIKR
Reply | 0.658

Ask | Request: hu199-05 (antibody, human IgG1, kappa, V domains shown, IgG1-YTE, kappa) VH: EVQLVQSGAEVKKPGASVKVSCKASGYTFTTYWMHWVRQAPGQGLEWMGMIDPSDSETTLIQKFKDRVTMTVDKSTSTAYMELSSLRSEDTAVYYCARTLDGYYDYWGQGTTVTVSS VL: DIQMTQSPSSLSASVGDRVTITCRASENIYSYLAWYQQKPGKAPKLLVYFAKTLAEGVPSRFSGSVSGTDFTLTISSLQPEDFATYYCQHHYGTPWTFGGGTKVEIKR
Reply | 0.473

Kindly consider the entry below.
Ask | So what's the measured IC50 for this one? hu199-07 (antibody, human IgG1, kappa, V domains shown, IgG1-YTE, kappa) VH: EVQLVQSGAEVKKPGASVKVSCKASGYTFTTYWMHWVRQAPGQGLEWMGMIDPSDSETTLIQKFKDRVTLTVDKSTSTAYMELSSLRSEDTAVYYCARTLDGYYDYWGQGTTVTVSS VL: DIQMTQSPSSLSASVGDRVTITCRASENIYSYLAWYQQKPGKAPKLLIYFAKTLAEGVPSRFSGSGSGTDFTLTISSLQPEDFATYYCQHHYGTPWTFGGGTKVEIKR
Reply | 0.283
